The values you see were collected from PubChem BioAssay AID1963833.

System: 883617-216-R-J1-PDC complex spheroid viability
experimentSummary: Anticancer human tumor 883617-216-R-J1-PDC patient-derived bladder carcinoma cell line growth inhibition [POLQ]
condition: second compound 0.0316 µM; first compound 0.0316 µM; stronger effect = lower value
observationType: viability, T/C (%)
Provide the reading as a plain figure in %.

As a guide, the following entries are already answered.
compound	measValue
CNCc1ccc(-c2[nH]c3cc(F)cc4c3c2CCNC4=O)cc1 + Cc1cccc(N(C)C(=O)C2C(O)CCN2c2nc(C)cc(C(F)(F)F)c2C#N)c1	91.1
CC1COCCN1c1cc(-c2ccnn2C)c2ccnc(-c3ccn[nH]3)c2n1 (stereo not given) + COC1C(OC(N)=O)C(O)C(Oc2ccc3c(O)c(NC(=O)c4ccc(O)c(CC=C(C)C)c4)c(=O)oc3c2C)OC1(C)C	89.7
CCc1cc2c(N3CCc4c(cc(Cn5ccnc5)cc4-c4cn(C)nc4C(F)(F)F)C3=O)ccnc2c(OC)n1 + COC1C(OC(N)=O)C(O)C(Oc2ccc3c(O)c(NC(=O)c4ccc(O)c(CC=C(C)C)c4)c(=O)oc3c2C)OC1(C)C	103

Field request: viability, T/C | item: C=CCn1c(=O)c2cnc(Nc3ccc(N4CCN(C)CC4)cc3)nc2n1-c1cccc(C(C)(C)O)n1 + Nc1ccc(C#CCN(C(=O)Cc2ncc(C(F)(F)F)cc2C(F)(F)F)c2ccc(F)cc2)nn1
84.3

Also, CC1COCCN1c1cc(-c2ccnn2C)c2ccnc(-c3ccn[nH]3)c2n1 (stereo not given) + Cc1cccc(N(C)C(=O)C2C(O)CCN2c2nc(C)cc(C(F)(F)F)c2C#N)c1 please.
89.1

----------
Tested on: 883617-216-R-J1-PDC complex spheroid viability
experimentSummary: Anticancer human tumor 883617-216-R-J1-PDC cell line growth inhibition [POLQ];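 note: spheroids exposed to compounds for seven days before readout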;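 for viability, T/C: 100% = DMSO vehicle control viability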
condition: second compound 3.16 µM; first compound 0.316 µM; stronger effect = lower value
observationType: viability, T/C (%)
Provide the reading as a plain figure in %.

compound	measureUnit	viability, T/C
CCc1c2c(nc3ccc(O)cc13)-c1cc3c(c(=O)n1C2)COC(=O)[C@]3(O)CC + Cc1cccc(N(C)C(=O)C2C(O)CCN2c2nc(C)cc(C(F)(F)F)c2C#N)c1	%	40.6

Field request: viability, T/C | item: CC1COCCN1c1cc(C2(O)CC3CCC(C2)O3)c2cnn(-c3ccn[nH]3)c2n1 (stereo not given) + Nc1ccc(C#CCN(C(=O)Cc2ncc(C(F)(F)F)cc2C(F)(F)F)c2ccc(F)cc2)nn1
45.2

Also, CC1COCCN1c1cc(C2(O)CC3CCC(C2)O3)c2cnn(-c3ccn[nH]3)c2n1 (stereo not given) + Cc1cccc(N(C)C(=O)C2C(O)CCN2c2nc(C)cc(C(F)(F)F)c2C#N)c1 please.
44.9

Also, CCc1cc2c(N3CCc4c(cc(Cn5ccnc5)cc4-c4cn(C)nc4C(F)(F)F)C3=O)cc(C)nc2c(OC)n1 + Nc1ccc(C#CCN(C(=O)Cc2ncc(C(F)(F)F)cc2C(F)(F)F)c2ccc(F)cc2)nn1 please.
96.4

Also, COc1cc(C2c3cc4c(cc3C(OC3OC5COC(C)OC5C(O)C3O)C3COC(=O)C23)OCO4)cc(OC)c1O (stereo not given) + Cc1cccc(N(C)C(=O)C2C(O)CCN2c2nc(C)cc(C(F)(F)F)c2C#N)c1 please.
77.8

Also, C=CC(=O)N1CCN(c2nc(=O)n(-c3c(C)ccnc3C(C)C)c3nc(-c4c(O)cccc4F)c(F)cc23)C(C)C1 (stereo not given) + Nc1ccc(C#CCN(C(=O)Cc2ncc(C(F)(F)F)cc2C(F)(F)F)c2ccc(F)cc2)nn1 please.
71.5

----------
Entries and their measured viability, T/C follow.
System: 883617-216-R-J1-PDC complex spheroid viability
experimentSummary: Anticancer human tumor 883617-216-R-J1-PDC cell line growth inhibition [POLQ];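 note: spheroids exposed to compounds for seven days before readout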;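 for viability, T/C: 100% = DMSO vehicle control viability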
condition: second compound 0.1 µM; first compound 0.0316 µM; stronger effect = lower value
Provide the reading as a plain figure in %.

As a guide, the following entries are already answered.
compound	viability, T/C (%)
CC[C@@]1(O)C(=O)OCc2c1cc1n(c2=O)Cc2cc3c(CN(C)C)c(O)ccc3nc2-1 + Nc1ccc(C#CCN(C(=O)Cc2ncc(C(F)(F)F)cc2C(F)(F)F)c2ccc(F)cc2)nn1	85.7
COc1ccc([C@@H](O)c2cc(-c3ncnc4cc(N5CCOCC5)ccc34)c(F)cc2Cl)nn1 + COC1C(OC(N)=O)C(O)C(Oc2ccc3c(O)c(NC(=O)c4ccc(O)c(CC=C(C)C)c4)c(=O)oc3c2C)OC1(C)C	98.5
C=CCn1c(=O)c2cnc(Nc3ccc(N4CCN(C)CC4)cc3)nc2n1-c1cccc(C(C)(C)O)n1 + Cc1cccc(N(C)C(=O)C2C(O)CCN2c2nc(C)cc(C(F)(F)F)c2C#N)c1	95.4
CC1COCCN1c1cc(-c2ccnn2C)c2ccnc(-c3ccn[nH]3)c2n1 (stereo unspecified) + Nc1ccc(C#CCN(C(=O)Cc2ncc(C(F)(F)F)cc2C(F)(F)F)c2ccc(F)cc2)nn1	73.1
CC1COCCN1c1cc(C2(S(C)(=N)=O)CC2)nc(-c2ccnc3[nH]ccc23)n1 (stereo unspecified) + Nc1ccc(C#CCN(C(=O)Cc2ncc(C(F)(F)F)cc2C(F)(F)F)c2ccc(F)cc2)nn1	82.7

I'm curious: which viability, T/C was measured for C#Cc1c(F)ccc2cc(O)cc(-c3ncc4c(N5CC6CCC(C5)N6)nc(OCC56CCCN5CC(F)C6)nc4c3F)c12 (stereo unspecified) + Nc1ccc(C#CCN(C(=O)Cc2ncc(C(F)(F)F)cc2C(F)(F)F)c2ccc(F)cc2)nn1 tested on 883617-216-R-J1-PDC complex spheroid viability?
100

Also, CC(C)n1c(=O)n(C)c2cnc3cc(F)c(-c4ccc(OCCCN5CCCCC5)nc4)cc3c21 + Nc1ccc(C#CCN(C(=O)Cc2ncc(C(F)(F)F)cc2C(F)(F)F)c2ccc(F)cc2)nn1 please.
95.7

Also, CC1COCCN1c1cc(C2(S(C)(=N)=O)CC2)nc(-c2ccnc3[nH]ccc23)n1 (stereo unspecified) + Cc1cccc(N(C)C(=O)C2C(O)CCN2c2nc(C)cc(C(F)(F)F)c2C#N)c1 please.
102

Also, CCCS(=O)(=O)Nc1ccc(F)c(C(=O)c2c[nH]c3ncc(-c4ccc(Cl)cc4)cc23)c1F + Cc1cccc(N(C)C(=O)C2C(O)CCN2c2nc(C)cc(C(F)(F)F)c2C#N)c1 please.
105

Also, CC(C)n1c(=O)n(C)c2cnc3cc(F)c(-c4ccc(OCCCN5CCCCC5)nc4)cc3c21 + Cc1cccc(N(C)C(=O)C2C(O)CCN2c2nc(C)cc(C(F)(F)F)c2C#N)c1 please.
108

Also, CC1COCCN1c1cc(C2(O)CC3CCC(C2)O3)c2cnn(-c3ccn[nH]3)c2n1 (stereo unspecified) + Cc1cccc(N(C)C(=O)C2C(O)CCN2c2nc(C)cc(C(F)(F)F)c2C#N)c1 please.
80.4

----------
Test system: 883617-216-R-J1-PDC complex spheroid viability
experimentSummary: Anticancer human tumor 883617-216-R-J1-PDC cell line growth inhibition [POLQ];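 note: spheroids exposed to compounds for seven days before readout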
condition: curve of first compound; second compound 0.0316 µM
observationType: pIC50
// pIC50: -log10(molar conc.)

molecule	pIC50
CCc1cc2c(N3CCc4c(cc(Cn5ccnc5)cc4-c4cn(C)nc4C(F)(F)F)C3=O)cc(C)nc2c(OC)n1 + Cc1cccc(N(C)C(=O)C2C(O)CCN2c2nc(C)cc(C(F)(F)F)c2C#N)c1	5.13
C=CCn1c(=O)c2cnc(Nc3ccc(N4CCN(C)CC4)cc3)nc2n1-c1cccc(C(C)(C)O)n1 + Cc1cccc(N(C)C(=O)C2C(O)CCN2c2nc(C)cc(C(F)(F)F)c2C#N)c1	6.03
COc1cccc2c1C(=O)c1c(O)c3c(c(O)c1C2=O)CC(O)(C(=O)CO)CC3OC1CC(N)C(O)C(C)O1 (stereo unspecified) + Cc1cccc(N(C)C(=O)C2C(O)CCN2c2nc(C)cc(C(F)(F)F)c2C#N)c1	6.51

// next item, pIC50 requested
Field request: pIC50 | item: C=CCn1c(=O)c2cnc(Nc3ccc(N4CCN(C)CC4)cc3)nc2n1-c1cccc(C(C)(C)O)n1 + COC1C(OC(N)=O)C(O)C(Oc2ccc3c(O)c(NC(=O)c4ccc(O)c(CC=C(C)C)c4)c(=O)oc3c2C)OC1(C)C
6.04

----------
System: 883617-216-R-J1-PDC complex spheroid viability
experimentSummary: Anticancer human tumor 883617-216-R-J1-PDC cell line growth inhibition [POLQ];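 note: spheroids exposed to compounds for seven days before readout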;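 for viability, T/C: 100% = DMSO vehicle control viability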
condition: second compound 0.1 µM; first compound 0.0316 µM; stronger effect = lower value
Procedure: Multicellular complex tumor spheroid response to Polymerase (POL) inhibitors (novobiocin, ART-558, RP6685) in combination with a variety of drugs and investigational agents in selected tumor cell lines The POL inhibitors (novobiocin, ART-558, and RP6685) were evaluated both individually and in combination with standard of care and investigational anticancer small molecules within a complex spheroid model of solid tumors. . […]
observationType: viability, T/C (%)
Provide the reading as a plain figure in %.

compound	measValue
COc1cccc2c1C(=O)c1c(O)c3c(c(O)c1C2=O)CC(O)(C(=O)CO)CC3OC1CC(N)C(O)C(C)O1 (stereo not given) + Cc1cccc(N(C)C(=O)C2C(O)CCN2c2nc(C)cc(C(F)(F)F)c2C#N)c1	66.1
CCCS(=O)(=O)Nc1ccc(F)c(C(=O)c2c[nH]c3ncc(-c4ccc(Cl)cc4)cc23)c1F + Nc1ccc(C#CCN(C(=O)Cc2ncc(C(F)(F)F)cc2C(F)(F)F)c2ccc(F)cc2)nn1	98.2
CCc1cc2c(N3CCc4c(cc(Cn5ccnc5)cc4-c4cn(C)nc4C(F)(F)F)C3=O)ccnc2c(OC)n1 + Nc1ccc(C#CCN(C(=O)Cc2ncc(C(F)(F)F)cc2C(F)(F)F)c2ccc(F)cc2)nn1	91.1
O=C(c1cc(Cc2n[nH]c(=O)c3ccccc23)ccc1F)N1CCN(C(=O)C2CC2)CC1 + Cc1cccc(N(C)C(=O)C2C(O)CCN2c2nc(C)cc(C(F)(F)F)c2C#N)c1	111

// next item, viability, T/C requested
I'm curious: which viability, T/C was measured for O=C(Nc1ccc(O)c(NS(=O)(=O)c2ccc(F)cc2)c1)c1ccc(-c2ccccc2)cc1 + COC1C(OC(N)=O)C(O)C(Oc2ccc3c(O)c(NC(=O)c4ccc(O)c(CC=C(C)C)c4)c(=O)oc3c2C)OC1(C)C tested on 883617-216-R-J1-PDC complex spheroid viability?
81.6
